These measurements were taken from ChEMBL document CHEMBL1201862.

Tested on: SF-539
procedure-summary: NCI tumour cell line growth inhibition, 48 h
The source made the active and inactive calls. Cut-off read from the data, not from the text of the source: active = GI50 up to about 1.1 µM and inactive = higher.
The reply should name one outcome from active, inactive

Examples from the recorded data:
[
  {
    "compound": "C=C1C=CC2(Br)OC3CC(C)(Cl)C(Br)CC13C2(C)C (centres undefined)",
    "assigned-label": "inactive"
  },
  {
    "compound": "Cc1cc2nn(C3CCCCO3)nc2cc1C (centres undefined)",
    "assigned-label": "inactive"
  },
  {
    "compound": "COc1cc2c(cc1OCCCCOc1cc(-c3ccc(F)cc3)nc(C)n1)N=C[C@@H]1CCCN1C2=O",
    "assigned-label": "active"
  },
  {
    "compound": "COc1cccc2c1C(=O)c1c(O)c3c(c(O)c1C2=O)C[C@@](O)(C(=O)CO)CC3OC1CC(NCCCC(OC(C)=O)OC(C)=O)C(O)C(C)O1 (some centres undefined)",
    "assigned-label": "active"
  },
  {
    "compound": "N#C[BH2-][n+]1cn(C2CC(OP(=O)(O)OCC3OC(n4ccc(N)nc4=O)CC3O)C(CO)O2)c2nc(N)[nH]c(=O)c21 (centres undefined)",
    "assigned-label": "inactive"
  }
]

Could you now consider this next compound?
Could you please tell me the result logged for Cn1c(=O)c2/c(n(C)c1=O)=N\C=c1\c(=O)n(C)c(=O)n(C)\c1=N\C=2 in this assay?
inactive
